# Weight loss (%) per entry
- Measurement description: Thermogravimetric analysis (TGA) weight loss
- Type: physicochemical
- Experimental parameters: salt screening sample, at the temperature given (80-200° C.)
Unit % implied. Number only.

Solved entries:
INSERT INTO assay_data (compound, value_kind, val) VALUES
  ('COc1cc(C(F)(F)F)c(OC)cc1[C@@H]1CCCNC1.COc1cc(C(F)(F)F)c(OC)cc1[C@@H]1CCCNC1.O=C(O)/C=C/C(=O)O [Hemi-fumarate salt Polymorph A]', 'Weight loss (%)', 4.8),
  ('COc1cc(C(F)(F)F)c(OC)cc1[C@@H]1CCCNC1.O=C(O)C[C@H](O)C(=O)O [L-malate salt Polymorph A]', 'Weight loss (%)', 2.3),
  ('COc1cc(C(F)(F)F)c(OC)cc1[C@@H]1CCCNC1 [Free base (Polymorph B)]', 'Weight loss (%)', 8.0);

Entry under review: COc1cc(C(F)(F)F)c(OC)cc1[C@@H]1CCCNC1.COc1cc(C(F)(F)F)c(OC)cc1[C@@H]1CCCNC1.O=C(O)/C=C/C(=O)O [Hemi-fumarate salt Polymorph B] . Reported Weight loss (%)?
9.4

* * *

- Measurement description: Salt screening (slurry crystallization)
- Assay type: physicochemical
- Experimental parameters: Acetone; slurry 50° C. then 25° C.
Value kind: Salt screening result

These recorded examples may help you get a feel for the data.
INSERT INTO results (compound, val) VALUES
  ('COc1cc(C(F)(F)F)c(OC)cc1[C@@H]1CCCNC1.C[C@@H](O)C(=O)O [D-lactate salt Polymorph A]', 'Thin suspension'),
  ('COc1cc(C(F)(F)F)c(OC)cc1[C@@H]1CCCNC1.C[C@H](O)C(=O)O [L-lactate salt Polymorph A]', 'Thin suspension'),
  ('COc1cc(C(F)(F)F)c(OC)cc1[C@@H]1CCCNC1.O=C(O)CCC(=O)O [Succinate salt Polymorph A (anhydrate)]', '+'),
  ('COc1cc(C(F)(F)F)c(OC)cc1[C@@H]1CCCNC1.O=C(O)C(O)C(O)C(=O)O [L-tartrate salt (Polymorph B, anhydrate)]', '+'),
  ('COc1cc(C(F)(F)F)c(OC)cc1[C@@H]1CCCNC1.COc1cc(C(F)(F)F)c(OC)cc1[C@@H]1CCCNC1.O=C(O)C(O)C(O)C(=O)O [Hemi L-tartrate salt Polymorph A]', '+');

We now examine a further compound.
Quick check: Salt screening result of `COc1cc(C(F)(F)F)c(OC)cc1[C@@H]1CCCNC1.Cl` ?
+

* * *

- Measurement description: Solubility in water at 25° C.
- Experimental parameters: thermodynamic from solid
Value kind: solubility at 24 h (mg/mL)
Answer with a number only, understood to be in mg/mL.

I would be grateful if you could share the reported solubility at 24 h for COc1cc(C(F)(F)F)c(OC)cc1[C@@H]1CCCNC1 [Free base (Polymorph B)] .
0.14

* * *

- Measurement description: Solubility in water at 25° C.
- Experimental parameters: thermodynamic from solid
Value kind: solubility at 2 h (µg/mL)
A number alone suffices; assume µg/mL.

Bench note: what solubility at 2 h did COc1cc(C(F)(F)F)c(OC)cc1[C@@H]1CCCNC1 [Free base (Polymorph B)] show?
110

* * *

- Measurement description: Solubility in pH buffers and bio-relevant media at 37° C.
- Format: physicochemical
- Experimental parameters: aqueous buffer, thermodynamic from solid, pH 4.5 (50 mM) acetate buffer, tested up to 2 mg/mL
Value kind: solubility at 24 h

Requested field: solubility at 24 h. Item: COc1cc(C(F)(F)F)c(OC)cc1[C@@H]1CCCNC1 [Free base (Polymorph B)]
> 2000 µg/mL

* * *

- Measurement description: Solubility of diastereomeric salts in solvents
- Format: physicochemical
- Experimental parameters: 20 °C, organic solvent or mixture; in MTBE; read-out: Solubility @ 20-30° C.
Collected solubility values appear next to each entry.

INSERT INTO measurements (molecule, val) VALUES
  ('COc1cc(C(F)(F)F)c(OC)cc1[C@H]1CCCNC1', '< 10000 µg/mL');

Switching to the query record.
For the molecule COc1cc(C(F)(F)F)c(OC)cc1[C@@H]1CCCNC1 [drawing 39] , what solubility is on record?
< 10000 µg/mL

* * *

- Measurement description: Solubility of diastereomeric salts in solvents
- Assay type: physicochemical
- Experimental parameters: 20 °C, organic solvent or mixture; in 2-MeTHF; read-out: Solubility @ 20-30° C.
Value kind: solubility (mg/mL)
Give the value in mg/mL but do not write mg/mL after it.

Record request: solubility value, item COc1cc(C(F)(F)F)c(OC)cc1[C@@H]1CCCNC1 [drawing 39]
50

* * *

- Measurement description: Solubility in pH buffers and bio-relevant media at 37° C.
- Type: physicochemical
- Experimental parameters: aqueous buffer, thermodynamic from solid, pH 4.5 (50 mM) acetate buffer, tested up to 2 mg/mL
Value kind: solubility at 2 h

Fill in: solubility at 2 h of COc1cc(C(F)(F)F)c(OC)cc1[C@@H]1CCCNC1 [Free base (Polymorph B)] is ___
> 2 mg/mL

* * *

- Measurement description: Crystallinity by XRPD
- Type: physicochemical
- Experimental parameters: salt screening sample
Value kind: Crystallinity

INSERT INTO results (molecule, val) VALUES
  ('COc1cc(C(F)(F)F)c(OC)cc1[C@@H]1CCCNC1.C[C@H](O)C(=O)O [L-lactate salt Polymorph A]', 'High'),
  ('CC(=O)O.COc1cc(C(F)(F)F)c(OC)cc1[C@@H]1CCCNC1 [Acetate salt Polymorph A]', 'High');

* * *

- Measurement description: Salt screening (slurry crystallization)
- Format: physicochemical
- Parameters: key: (+) shows that a crystalline salt was formed; (−) physical mixtures
- Experimental parameters: EtOH; slurry 50° C. then 25° C.
Value kind: Salt screening result

// solved cases for Salt screening result follow
INSERT INTO results (compound, value_kind, val) VALUES
  ('COc1cc(C(F)(F)F)c(OC)cc1[C@@H]1CCCNC1.COc1cc(C(F)(F)F)c(OC)cc1[C@@H]1CCCNC1.O=C(O)C(O)C(O)C(=O)O [Hemi L-tartrate salt Polymorph A]', 'Salt screening result', '+'),
  ('COc1cc(C(F)(F)F)c(OC)cc1[C@@H]1CCCNC1.C[C@@H](O)C(=O)O [D-lactate salt Polymorph A]', 'Salt screening result', '+'),
  ('COc1cc(C(F)(F)F)c(OC)cc1[C@@H]1CCCNC1.C[C@H](O)C(=O)O [L-lactate salt Polymorph A]', 'Salt screening result', 'Clear solution'),
  ('COc1cc(C(F)(F)F)c(OC)cc1[C@@H]1CCCNC1 [Free base (Polymorph B)]', 'Salt screening result', 'Clear solution');

What Salt screening result value was documented for this compound, COc1cc(C(F)(F)F)c(OC)cc1[C@@H]1CCCNC1.N[C@@H](CC(=O)O)C(=O)O [L-aspartate salt Polymorph A] ?
+

Reported Salt screening result, compound COc1cc(C(F)(F)F)c(OC)cc1[C@@H]1CCCNC1.O=C(O)C(O)C(O)C(=O)O [L-tartrate salt (Polymorph B, anhydrate)] : ____
+

* * *

- Measurement description: Solubility in pH buffers and bio-relevant media at 37° C.
- Type: physicochemical
- Experimental parameters: aqueous buffer, thermodynamic from solid, pH 6.8 (50 mM) phosphate buffer, tested up to 2 mg/mL
Value kind: solubility at 24 h (µg/mL)
Please give a number only; it is taken to be in µg/mL.

Look at this compound and give its reported solubility at 24 h. COc1cc(C(F)(F)F)c(OC)cc1[C@@H]1CCCNC1 [Free base (Polymorph B)]
1580

* * *

- Measurement description: Solubility in pH buffers and bio-relevant media at 37° C.
- Assay type: physicochemical
- Experimental parameters: pH 1.2 HCl buffer (0.1N HCl), simulated gastric fluid, thermodynamic from solid, pH 1.2 (0.1N HCl), tested up to 2 mg/mL
Value kind: solubility at 24 h

// solubility at 24 h lookup, key: COc1cc(C(F)(F)F)c(OC)cc1[C@@H]1CCCNC1 [Free base (Polymorph B)]
> 2000 µg/mL

* * *

As shown below, each of these compounds has a reported Weight loss (%) value.
- Measurement description: Thermogravimetric analysis (TGA) weight loss
- Type: physicochemical
- Experimental parameters: salt screening sample, at the temperature given (80-200° C.)
- Description: According to the salt screening results (see Table 4), totally 19 potential salt hits were identified. All the potential salt hits were further investigated by Differential Scanning Calorimetry (DSC), Thermogravimetric analysis (TGA), H-NMR, Ion chromatography (IC), Karl Fischer titration (KF), and Polarized Light Microscopy (PLM) to confirm their identity and evaluate their physicochemical properties as shown in Table 5 below.
Numeric answer only, unit % assumed.

INSERT INTO assay_data (compound, value_kind, val) VALUES
  ('COc1cc(C(F)(F)F)c(OC)cc1[C@@H]1CCCNC1.C[C@H](O)C(=O)O [L-lactate salt Polymorph A]', 'Weight loss (%)', 4.9),
  ('COc1cc(C(F)(F)F)c(OC)cc1[C@@H]1CCCNC1.O=C(O)C(O)C(O)C(=O)O [L-tartrate salt (Polymorph B, anhydrate)]', 'Weight loss (%)', 0.9),
  ('COc1cc(C(F)(F)F)c(OC)cc1[C@@H]1CCCNC1.N[C@@H](CCC(=O)O)C(=O)O [L-glutamate salt Polymorph C]', 'Weight loss (%)', 6.3);

Shifting focus to the compound that follows.
Record request: Weight loss (%) value, item COc1cc(C(F)(F)F)c(OC)cc1[C@@H]1CCCNC1.COc1cc(C(F)(F)F)c(OC)cc1[C@@H]1CCCNC1.O=C(O)C(O)C(O)C(=O)O [Hemi L-tartrate salt Polymorph A]
4.0
